measurementTarget: ABCC2 (Homo sapiens, UniProt Q92887)
Construct: profiled in 60 diverse cancer cell lines (the NCI-60) using real-time RT-PCR; endogenous in cells; host or cells: NCI-60 human cancer cell lines
Sequence (Q92887 whole entry): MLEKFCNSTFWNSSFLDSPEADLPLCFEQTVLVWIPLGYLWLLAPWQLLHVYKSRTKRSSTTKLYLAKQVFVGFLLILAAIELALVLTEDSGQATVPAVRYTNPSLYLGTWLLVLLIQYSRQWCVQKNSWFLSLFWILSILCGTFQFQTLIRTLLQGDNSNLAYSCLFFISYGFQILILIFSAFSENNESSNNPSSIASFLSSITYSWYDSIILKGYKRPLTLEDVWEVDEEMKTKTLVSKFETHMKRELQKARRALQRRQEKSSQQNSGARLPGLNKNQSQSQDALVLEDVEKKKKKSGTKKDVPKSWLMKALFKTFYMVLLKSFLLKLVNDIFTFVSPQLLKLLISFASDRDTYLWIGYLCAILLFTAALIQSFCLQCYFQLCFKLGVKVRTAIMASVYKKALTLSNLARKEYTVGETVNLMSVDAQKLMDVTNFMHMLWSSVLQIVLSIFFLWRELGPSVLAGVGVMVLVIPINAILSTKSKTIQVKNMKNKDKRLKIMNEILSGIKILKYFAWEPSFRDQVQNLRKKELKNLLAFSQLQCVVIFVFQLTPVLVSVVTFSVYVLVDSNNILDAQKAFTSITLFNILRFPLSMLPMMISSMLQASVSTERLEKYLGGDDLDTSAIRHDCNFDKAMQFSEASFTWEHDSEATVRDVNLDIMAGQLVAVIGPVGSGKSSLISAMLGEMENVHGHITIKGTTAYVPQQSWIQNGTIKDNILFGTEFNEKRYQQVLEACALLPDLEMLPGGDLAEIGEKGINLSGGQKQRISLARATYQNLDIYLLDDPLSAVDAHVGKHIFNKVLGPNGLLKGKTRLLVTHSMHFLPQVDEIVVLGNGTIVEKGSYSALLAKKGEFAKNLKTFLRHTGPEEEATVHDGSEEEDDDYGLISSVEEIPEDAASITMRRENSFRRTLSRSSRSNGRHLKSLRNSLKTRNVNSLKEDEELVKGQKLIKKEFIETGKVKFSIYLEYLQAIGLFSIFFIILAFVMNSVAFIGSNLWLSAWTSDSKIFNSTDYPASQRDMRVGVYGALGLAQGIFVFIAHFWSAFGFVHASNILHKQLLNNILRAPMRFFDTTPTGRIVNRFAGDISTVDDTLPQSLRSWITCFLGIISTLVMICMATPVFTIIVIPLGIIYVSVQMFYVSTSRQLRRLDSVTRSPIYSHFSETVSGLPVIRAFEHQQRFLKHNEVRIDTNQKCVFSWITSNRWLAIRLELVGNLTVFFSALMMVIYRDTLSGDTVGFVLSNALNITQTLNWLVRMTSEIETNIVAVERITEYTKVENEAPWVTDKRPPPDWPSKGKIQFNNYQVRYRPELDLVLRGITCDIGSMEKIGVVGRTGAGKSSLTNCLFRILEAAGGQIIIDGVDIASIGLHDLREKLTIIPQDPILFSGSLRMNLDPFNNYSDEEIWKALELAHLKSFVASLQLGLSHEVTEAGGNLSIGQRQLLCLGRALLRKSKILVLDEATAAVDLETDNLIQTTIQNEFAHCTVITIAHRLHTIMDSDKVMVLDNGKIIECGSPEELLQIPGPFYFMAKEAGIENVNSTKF
assayOverview: Correlation of ABCC2 expression with drug sensitivity across the NCI-60
Type: cell-based
condition: Pearson correlation of ABCC2 expression with sensitivity of the 60 cell lines; 1429 compounds; inverse, p < 0.0001
Attribute: Correlation
observable: Correlation

1) COc1cc(/C=C2\CCC(CN(C)C)C2=O)ccc1OC(=O)c1ccccc1.Cl (stereo not shown) [NSC 639518]
−0.4350
2) COC(=O)[C@@]12C(=O)C=CC(=O)[C@@H]1C1C(=CC2COC(C)=O)O[C@@H]2OC3(CCCCC3)O[C@H]12 (stereo partly shown) [NSC 637399]
−0.4969
3) CC(C)Cc1ccc(C(C)/C=C2\CCC(CN3CCCCC3)C2=O)cc1.Cl (stereo not shown) [NSC 639978]
−0.5210
4) CCCCCCOc1ccc(C(=O)NO)cc1 [NSC 692754]
−0.4016
5) CC1=NN(c2nc(N)nc(CBr)n2)C(C)(C)C1 [NSC 696916]
−0.4224
6) COc1cccc2c1C(=O)C=CC2=O [NSC 618315]
−0.4247
7) CCCCCCCCCCCCCC(=O)NO [NSC 634458]
−0.4326
8) CC1(C)OC2C(CO[Si](C)(C)C(C)(C)C)OC(n3cnc4c(N)nc(C#C[Si](C)(C)C)nc43)C2O1 (stereo not shown) [NSC 687496]
−0.4544
9) Cc1ccc(C2=CC(=O)/C(=C\C(=O)c3ccc(Br)cc3)O2)c(C)c1 [NSC 674919]
−0.4608
10) CCOC(=O)c1oc2cc3c(c4c2c1-c1ccccc1N4C)C=CC(C)(C)O3 [NSC 693215]
−0.4377
11) CC(C)OC(=O)c1ccc(CCC2=CC(=O)C=CC2=O)cc1 [NSC 684496]
−0.4340
12) CN(C)CCC(=O)N1C/C(=C\c2ccc(Cl)c(Cl)c2)C(=O)/C(=C/c2ccc(Cl)c(Cl)c2)C1.Cl [NSC 638645]
−0.5028
13) CC(C)Cc1ccc(C(C)/C=C2\CCC(CN3CCOCC3)C2=O)cc1.Cl (stereo not shown) [NSC 639976]
−0.4670

---

measurementTarget: ABCB1 (Homo sapiens, UniProt P08183)
Sequence (P08183 whole entry): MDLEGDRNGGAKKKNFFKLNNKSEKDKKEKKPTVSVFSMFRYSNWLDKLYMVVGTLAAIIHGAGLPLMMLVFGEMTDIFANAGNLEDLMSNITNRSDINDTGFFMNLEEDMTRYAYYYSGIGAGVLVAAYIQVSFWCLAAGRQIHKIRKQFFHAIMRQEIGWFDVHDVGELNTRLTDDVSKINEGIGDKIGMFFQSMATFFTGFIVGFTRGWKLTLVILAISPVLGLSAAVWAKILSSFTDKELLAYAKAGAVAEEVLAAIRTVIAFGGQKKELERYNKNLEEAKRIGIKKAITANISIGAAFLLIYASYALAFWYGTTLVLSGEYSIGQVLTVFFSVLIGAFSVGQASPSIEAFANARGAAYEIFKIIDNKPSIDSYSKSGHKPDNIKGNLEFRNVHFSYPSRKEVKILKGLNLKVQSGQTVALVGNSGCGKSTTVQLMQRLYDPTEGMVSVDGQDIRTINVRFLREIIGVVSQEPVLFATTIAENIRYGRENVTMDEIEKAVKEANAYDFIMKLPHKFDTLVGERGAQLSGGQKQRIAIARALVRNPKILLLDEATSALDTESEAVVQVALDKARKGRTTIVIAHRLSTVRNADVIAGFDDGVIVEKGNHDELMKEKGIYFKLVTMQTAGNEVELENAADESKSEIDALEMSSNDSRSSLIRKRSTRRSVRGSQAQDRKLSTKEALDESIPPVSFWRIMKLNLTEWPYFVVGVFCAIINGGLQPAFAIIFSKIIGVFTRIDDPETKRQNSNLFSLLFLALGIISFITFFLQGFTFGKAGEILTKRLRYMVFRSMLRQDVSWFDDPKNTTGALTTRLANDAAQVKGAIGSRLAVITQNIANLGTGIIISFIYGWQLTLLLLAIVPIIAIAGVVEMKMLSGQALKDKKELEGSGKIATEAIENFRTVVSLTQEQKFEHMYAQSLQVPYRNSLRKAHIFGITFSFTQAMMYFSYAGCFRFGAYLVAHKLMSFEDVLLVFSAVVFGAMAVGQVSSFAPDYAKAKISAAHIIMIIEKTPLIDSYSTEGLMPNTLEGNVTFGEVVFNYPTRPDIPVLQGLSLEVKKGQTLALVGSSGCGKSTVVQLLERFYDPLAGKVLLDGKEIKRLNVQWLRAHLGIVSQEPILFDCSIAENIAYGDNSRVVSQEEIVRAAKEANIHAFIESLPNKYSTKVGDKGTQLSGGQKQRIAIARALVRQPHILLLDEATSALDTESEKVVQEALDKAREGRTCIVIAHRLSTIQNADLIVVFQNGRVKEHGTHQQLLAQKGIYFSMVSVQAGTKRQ
assayOverview: Correlation of ABCB1 expression with drug sensitivity across the NCI-60
Measured Pearson's Correlation Coeff accompanies every entry in the list below.
observable: Pearson's Correlation Coeff

1) Cc1c(CNc2ccc(Cl)c(C(=O)NC(CC(=O)O)C(=O)O)c2)ccc2nc(N)nc(N)c12 (stereo not drawn)
0.3151
2) COc1ccc2cc(CNCCCCCCCCNCc3ccc4cc(OC)ccc4c3)ccc2c1
0.1843
3) C=C(C=O)c1c2c(nc3ccccc13)C(=O)c1ccccc1C2=O
0.3742
4) O=[N+]([O-])C(=C\c1cccs1)/C(=C/c1cccs1)[N+](=O)[O-]
0.2788
5) COc1cc([C@@H]2c3[nH]c4ccccc4c3C[C@H]3COC(=O)N32)cc(OC)c1O
0.2176
6) CCc1nc(N)nc(N)c1-c1ccc2c(c1)nnn2CCc1ccccc1
0.3841
7) CN(C)CCN1C(=O)c2cccc3cc([N+](=O)[O-])cc(c23)C1=O
0.2734
8) NC(=O)NO
0.3336
9) CCc1nc(N)nc(N)c1-c1ccc([N+](=O)[O-])c(Cl)c1
0.3012

Where do these numbers come from? They come from patent US20080214606A1.
